# assay comment: NCI Yeast Anticancer Drug Screen. Data for the rad50 strain (AID 155);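 further: 0% = growth of vehicle-only cultures of the same strain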
# measurement conditions: S. cerevisiae rad50 strain growth inhibition; at 50.0 µM; hits give high values
Compounds without any hit were thinned out: in the full panel of roughly 79,000, 15% have a hit.
Listed below: growth inhibition values for each entry.
Numeric answer only, unit % assumed.

CN(C)CCSc1nc2ccccc2s1: 7.6
Cc1ccc(S(=O)(=O)CNC(=O)C(O)(O)C(F)(F)F)cc1: -24.9
NC(C(=O)O)C(F)(F)C(=O)O (stereo not drawn): 2.45

Request: What measured growth inhibition goes with CC(O)C(O)C(O)C(O)C#N (stereo not drawn) ?
Result: 20.6

Request: What measured growth inhibition goes with CC(CCNC(=S)S)CC(C)(C)C.[Zn+2] (stereo not drawn) ?
Result: 9.75

Request: What measured growth inhibition goes with COc1ccc(/C=C/C(=O)CC(=O)/C=C/c2ccc(OC)cc2)cc1 ?
Result: 23.1

Request: What measured growth inhibition goes with O=C(N/C(=C\c1ccc([N+](=O)[O-])cc1)c1nc2ccccc2[nH]1)c1ccccc1 ?
Result: 29.1

Request: What measured growth inhibition goes with CC12CCC(C/C1=N\O)C2(C)CBr (stereo not drawn) ?
Result: 13.4

Request: What measured growth inhibition goes with CNS(=O)(=O)c1ccc(Cl)cc1 ?
Result: 29.9

Request: What measured growth inhibition goes with COC(=O)C1C2C=CC(O2)C1C(=O)OC (stereo not drawn) ?
Result: -2.15

Request: What measured growth inhibition goes with Cc1ccc(C(=O)OC2CCCC2)cc1 ?
Result: 7.85

Request: What measured growth inhibition goes with O=C(c1ccc([N+](=O)[O-])cc1)c1cc2ccccc2oc1=O ?
Result: -12.1

Request: What measured growth inhibition goes with CS(=O)(=O)OC1COC(c2ccccc2)OC1C1OC(c2ccccc2)OCC1OS(C)(=O)=O (stereo not drawn) ?
Result: -26.7

====

# assay comment: NCI Yeast Anticancer Drug Screen. Data for the mlh1 rad18 strain (AID 175)
# measurement conditions: S. cerevisiae mlh1 rad18 strain growth inhibition; at 50.0 µM; hits give high values
This is part of a sample that, as a whole, favours compounds with a hit. Of some 79,000 tested, about 15% had one in any assay.
metric name: growth inhibition (%)
Numeric answer only, unit % assumed.

NC1C([O-])OC(CO)C(O)C1O.O=C1OC(C(O)CO)C([O-])=C1[OH2+].[Cu+2] (centres undefined): -12.8
C=Nc1ccc(C)cc1: -18.4
CC(=O)[CH-]C(=O)c1ccccc1.CC(=O)[CH-]C(=O)c1ccccc1.CC(C)CCCC(C)[C@H]1CCC2[C@@H]3CC=C4C[C@@H]([O-])CC[C@]4(C)C3CC[C@@]21C.CC[O-].[Ti+4] (some centres undefined): 3.85

Request: What measured growth inhibition goes with COc1ccc(/C=C/C(=O)c2ccc(Br)cc2)cc1 ?
Result: -44.3

Request: What measured growth inhibition goes with C[C@]12CCC(=O)C=C1CC[C@@H]1[C@@H]2C(=O)C[C@@]2(C)[C@H]1CC[C@]2(O)C(=O)C=O ?
Result: 2.45

Request: What measured growth inhibition goes with C/C(=N\NC(N)=S)C(CN(CC(C)C)CC(C)C)C(=O)Nc1ccc(C)cc1C (centres undefined) ?
Result: -2.75

Request: What measured growth inhibition goes with COC1CC(OC2CCC3(C)C(=CCC4C3C(OC(C)=O)C(OC(=O)CC(C)C)C3(C)C(C(C)=O)CCC43O)C2)OC(C)C1OC1CC(OC)C(OC2CC(OC)C(OC3OC(C)C(OC4OC(CO)C(O)C(O)C4O)C(OC)C3O)C(C)O2)C(C)O1 (centres undefined) ?
Result: -38.4

Request: What measured growth inhibition goes with CC1=CC(=O)N(NC(N)=O)C1=O ?
Result: 2.15

Request: What measured growth inhibition goes with COc1ccc(OC)c(NC(=O)SC(C)C)c1 ?
Result: -3.65

Request: What measured growth inhibition goes with CC(=O)Nc1ncn(C)c1S(N)(=O)=O ?
Result: 15.5

Request: What measured growth inhibition goes with CC(=O)OCCNc1ccccc1 ?
Result: 20.3

Request: What measured growth inhibition goes with CNc1ccc(C(=O)O)cc1 ?
Result: -9.9

Request: What measured growth inhibition goes with COc1cc(/C=C2\N=C(C)OC2=O)ccc1O ?
Result: 2.05

====

# assay comment: NCI Yeast Anticancer Drug Screen. Data for the bub3 strain (AID 167)
# measurement conditions: S. cerevisiae bub3 mutant strain, at 50.0 µM
# Method: Growth inhibition of yeast strains with defined genetic alterations is measured as a screen for potential anti-cancer activity. Selected strains with alterations in DNA damage repair or cell cycle control were exposed to compounds and growth inhibition was measured relative to vehicle treated controls. The strain used in this assay is bub3
The panel holds about 79,000 compounds, 15% with a hit somewhere; the sample as a whole holds those more often. The source made the active and inactive calls. Cut-off read from the data, not from the text of the source: active = growth inhibition above about 70%; inactive = the rest.
Respond only with the outcome that fits, drawn from 1 (active), 0 (inactive)

Request: Record request — test call for NC(=O)SCCC(N)C(=O)O (stereo not drawn)
Result: 0

Request: Record request — test call for COc1ccc(N=Nc2c(C)c(C#N)c(=S)n(C3OC(CO)C(O)C(O)C3O)c2-c2ccccc2)cc1 (stereo not drawn)
Result: 0

Request: Record request — test call for Nc1nc(O)c(N)c(=O)[nH]1
Result: 0

Request: Record request — test call for O=C(O)CC(C(=O)O)=C1CCCCC1
Result: 0

Request: Record request — test call for Cc1nc(/N=C(/N)N(C)C)[nH]c(=O)c1C
Result: 0

Request: Record request — test call for CCCCCCC(c1ccc(N(C)C)cc1)c1ccc(N(C)C)cc1
Result: 0

Request: Record request — test call for CN1CNC(=O)c2n[nH]nc21
Result: 0

Request: Record request — test call for COc1ccc(C2=CCCCc3cc(O)c(OC)cc32)cc1
Result: 1

Request: Record request — test call for CC(C)(C)N(C/C=C/CN(Cc1ccccc1)Cc1ccccc1)C(C)(C)C
Result: 0

Request: Record request — test call for C#CCI
Result: 0

Request: Record request — test call for CCCCCCCCn1c(C)nc2c(cnn2C)c1=O
Result: 0

====

# assay comment: NCI Yeast Anticancer Drug Screen. Data for the bub3 strain (AID 167)
# measurement conditions: S. cerevisiae bub3 mutant strain, at 50.0 µM, hits give high values
About 79,000 compounds went through this panel and 15% of them were active in at least one assay; those are over-represented in the sample as a whole.
Binary call on growth inhibition: label 1 from 10% upward, label 0 beneath that.

CCCCC(=O)c1ccc2ccccc2c1O: label 0

Request: Textbook exercise: given the entry Cc1ccc(C2(O)c3ccccc3N=NN2C)cc1 (stereo not given) , state whether its growth inhibition is greater than or equal to 10%.
Result: label 1

Request: Textbook exercise: given the entry O=C1C=C(Cl)C(=O)O1 , state whether its growth inhibition is greater than or equal to 10%.
Result: label 0

Request: Textbook exercise: given the entry CC(C)(C)N=Cc1ccccc1[O-].CC(C)(C)N=Cc1ccccc1[O-].[Co+2] , state whether its growth inhibition is greater than or equal to 10%.
Result: label 0

Request: Textbook exercise: given the entry O=C(C[n+]1ccccc1)N/N=C(\Cc1nc2ccc([N+](=O)[O-])cc2[nH]c1=O)C(=O)Nc1cc(Cl)c(Cl)cc1Cl , state whether its growth inhibition is greater than or equal to 10%.
Result: label 1

Request: Textbook exercise: given the entry COC(=O)C(=O)C(C(=O)C=C(C)C)C(=O)C(=O)Nc1cccc(C(C)=O)c1 (stereo not given) , state whether its growth inhibition is greater than or equal to 10%.
Result: label 0

Request: Textbook exercise: given the entry CC(=O)OC/C=C(C)/C=C/C=C(C)/C=C/C1=C(C)CCCC1(C)C , state whether its growth inhibition is greater than or equal to 10%.
Result: label 1

Request: Textbook exercise: given the entry O=C(/C=C/c1ccccc1)c1ccc(O)cc1O , state whether its growth inhibition is greater than or equal to 10%.
Result: label 0

Request: Textbook exercise: given the entry C/C(C(=O)O)=C1\N=C(N)NC1=O , state whether its growth inhibition is greater than or equal to 10%.
Result: label 0

====

Listed below: growth inhibition values for each entry.
# assay comment: NCI Yeast Anticancer Drug Screen. Data for the rad50 strain (AID 155);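 further: 0% = growth of vehicle-only cultures of the same strain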
# measurement conditions: S. cerevisiae rad50 strain growth inhibition; at 50.0 µM; hits give high values
The panel holds about 79,000 compounds, 15% with a hit somewhere; the sample as a whole holds those more often. Calls of active or inactive are those of the source. Rule as the data show it: active = growth inhibition above about 70%; inactive = the rest.

Look over these answered cases.
O=[S@]1Nc2cc(N=Nc3ccccc3)ccc2S1: -3.45% (inactive)
CC1C(c2ccccc2)=CCON1c1ccccc1 (stereo not drawn): -2.9% (inactive)

Now examine the next entry.
Request: What measured growth inhibition goes with Cc1cc(OC(=O)c2ccccc2)c(C)c(C)c1OC(=O)c1ccccc1 ?
Result: 6.15% (inactive)

====

# assay comment: NCI Yeast Anticancer Drug Screen. Data for the rad50 strain (AID 155);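 further: 0% = growth of vehicle-only cultures of the same strain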
# measurement conditions: S. cerevisiae rad50 strain growth inhibition; at 50.0 µM; hits give high values
This is part of a sample that, as a whole, favours compounds with a hit. Of some 79,000 tested, about 15% had one in any assay.
metric name: growth inhibition (%)
Numeric answer only, unit % assumed.

CCOC(=O)c1[nH]cc(C)c1-c1c[nH]c2ccccc12: 31

Request: What measured growth inhibition goes with CCOC(=O)C(C(C)=O)C(c1ccc(OCc2ccccc2)c(C)c1)C(C(C)=O)C(=O)OCC (stereo not drawn) ?
Result: 14.7

Request: What measured growth inhibition goes with C=CCS(=O)(=O)c1ccc(Cl)cc1 ?
Result: 1.95
